test: Aqueous solubility; format: physicochemical; conditions: aqueous medium (not further specified)
readout-name: solubility

Value of solubility reported for the molecule C=C[C@@H]1C[C@]1(NC(=O)[C@@H]1C[C@@H]2CN1C(=O)[C@H](C(C)(C)C)NC(=O)O[C@@H]1C[C@H]1CCCCCc1nc3ccc(OC)cc3nc1O2)C(=O)NS(=O)(=O)C1CC1 [Compound 1] is < 50 µg/mL

----------
assay: log D of Compound 1; format: physicochemical; conditions: pH 7, pH=7
readout-name: logD
One number for each entry.

Value of logD reported for the compound C=C[C@@H]1C[C@]1(NC(=O)[C@@H]1C[C@@H]2CN1C(=O)[C@H](C(C)(C)C)NC(=O)O[C@@H]1C[C@H]1CCCCCc1nc3ccc(OC)cc3nc1O2)C(=O)NS(=O)(=O)C1CC1 is 3

----------
settings: simulated fasted state intestinal fluid, fassif, thermodynamic from solid
readout-name: solubility at 2 h (µg/mL)
One number for each entry, in µg/mL.

Value of solubility at 2 h reported for the molecule C=C[C@@H]1C[C@]1(NC(=O)[C@@H]1C[C@@H]2CN1C(=O)[C@H](C(C)(C)C)NC(=O)O[C@@H]1C[C@H]1CCCCCc1nc3ccc(OC)cc3nc1O2)C(=O)NS(=O)(=O)C1CC1 is 50
